experiment: Determination of solubility of crystal form A of compound 1 in single or mixed solvents; assay type: physicochemical; settings: organic solvent or mixture, thermodynamic from solid; solvent Methyl ethyl ketone
reported-metric: solubility

(Q) Entry under review: Cc1cc(-c2c(-c3ccccc3)nc(N)n3nc(CO)nc23)cc(C(F)(F)F)n1 [Crystal form A of compound 1] . Reported solubility?
(A) 36.7 to 55 mg/mL

* * *

test: Determination of solubility of crystal form A of compound 1 in single or mixed solvents; type: physicochemical; settings: organic solvent or mixture, thermodynamic from solid; solvent Methanol
reported-metric: solubility

(Q) Entry under review: Cc1cc(-c2c(-c3ccccc3)nc(N)n3nc(CO)nc23)cc(C(F)(F)F)n1 [Crystal form A of compound 1] . Reported solubility?
(A) 47.5 to 95 mg/mL

* * *

assay: Determination of solubility of crystal form A of compound 1 in single or mixed solvents; format: physicochemical; conditions: organic solvent or mixture, thermodynamic from solid; solvent Acetonitrile:Water (2:1)
reported-metric: solubility

(Q) Entry under review: Cc1cc(-c2c(-c3ccccc3)nc(N)n3nc(CO)nc23)cc(C(F)(F)F)n1 [Crystal form A of compound 1] . Reported solubility?
(A) 26.3 to 35 mg/mL

* * *

assay: Determination of solubility of crystal form A of compound 1 in single or mixed solvents; format: physicochemical; settings: organic solvent or mixture, thermodynamic from solid; solvent Ethanol
reported-metric: solubility

(Q) Entry under review: Cc1cc(-c2c(-c3ccccc3)nc(N)n3nc(CO)nc23)cc(C(F)(F)F)n1 [Crystal form A of compound 1] . Reported solubility?
(A) 28.8 to 38.3 mg/mL

* * *

test: Determination of solubility of crystal form A of compound 1 in single or mixed solvents; assay type: physicochemical; conditions: organic solvent or mixture, thermodynamic from solid; solvent 1,4-Dioxane
reported-metric: solubility

(Q) Entry under review: Cc1cc(-c2c(-c3ccccc3)nc(N)n3nc(CO)nc23)cc(C(F)(F)F)n1 [Crystal form A of compound 1] . Reported solubility?
(A) 35 to 52.5 mg/mL

* * *

assay: Determination of solubility of crystal form A of compound 1 in single or mixed solvents; format: physicochemical; conditions: organic solvent or mixture, thermodynamic from solid; solvent Acetonitrile
reported-metric: solubility

(Q) Entry under review: Cc1cc(-c2c(-c3ccccc3)nc(N)n3nc(CO)nc23)cc(C(F)(F)F)n1 [Crystal form A of compound 1] . Reported solubility?
(A) 12.2 to 13.8 mg/mL

* * *

test: Determination of solubility of crystal form A of compound 1 in single or mixed solvents; assay type: physicochemical; conditions: organic solvent or mixture, thermodynamic from solid; solvent Ethanol:Water (3:1)
reported-metric: solubility

(Q) Entry under review: Cc1cc(-c2c(-c3ccccc3)nc(N)n3nc(CO)nc23)cc(C(F)(F)F)n1 [Crystal form A of compound 1] . Reported solubility?
(A) 25 to 50 mg/mL

* * *

experiment: Determination of solubility of crystal form A of compound 1 in single or mixed solvents; format: physicochemical; conditions: organic solvent or mixture, thermodynamic from solid; solvent Ethyl acetate
reported-metric: solubility

(Q) Entry under review: Cc1cc(-c2c(-c3ccccc3)nc(N)n3nc(CO)nc23)cc(C(F)(F)F)n1 [Crystal form A of compound 1] . Reported solubility?
(A) 12.5 to 16.7 mg/mL

Value source: patent US11649239B2
